Where do these numbers come from? They come from paper PMC12810351.

In this section we review reported pKi values for a set of compounds.
- Target Of Assay: porcine pancreatic α-amylase (Sus scrofa)
- Assay Details: starch hydrolysis by α-amylase monitored by isothermal titration calorimetry (ITC)
- Assay type: biochemical
- Measurement Context: uncompetitive inhibition constant; substrate starch, ITC; 100 μM polyphenol (EGCG 25 μM); read-out: Kiu
Just the number, please; pKi means minus log10 of the concentration in mol/L.

Known pKi results, listed for orientation:
> print(dat)
                                   compound  measurement.name   val
1  OC[C@H]1O[C@@H](Oc2cc3c(O)cc(O)cc3[o+]c2-c2ccc(O)c(O)c2)[C@H](O)[C@@H](O)[C@@H]1O [CYD-3-glc, cyanidin-3-O-glucoside]               pKi  3.70
2  Oc1cc(O)c2c(c1)O[C@H](c1ccc(O)c(O)c1)[C@H](O)C2 [EC, (−)-epicatechin]               pKi  3.41

For this compound ( O=C(CCc1ccc(O)cc1)c1c(O)cc(O)cc1O[C@@H]1O[C@H](CO)[C@@H](O)[C@H](O)[C@H]1O ), measured pKi is 3.24

----------
The entries below are paired with their reported IC50.
- Target Of Assay: porcine pancreatic α-amylase (Sus scrofa, UniProt P00690)
- Sequence (P00690 16-511): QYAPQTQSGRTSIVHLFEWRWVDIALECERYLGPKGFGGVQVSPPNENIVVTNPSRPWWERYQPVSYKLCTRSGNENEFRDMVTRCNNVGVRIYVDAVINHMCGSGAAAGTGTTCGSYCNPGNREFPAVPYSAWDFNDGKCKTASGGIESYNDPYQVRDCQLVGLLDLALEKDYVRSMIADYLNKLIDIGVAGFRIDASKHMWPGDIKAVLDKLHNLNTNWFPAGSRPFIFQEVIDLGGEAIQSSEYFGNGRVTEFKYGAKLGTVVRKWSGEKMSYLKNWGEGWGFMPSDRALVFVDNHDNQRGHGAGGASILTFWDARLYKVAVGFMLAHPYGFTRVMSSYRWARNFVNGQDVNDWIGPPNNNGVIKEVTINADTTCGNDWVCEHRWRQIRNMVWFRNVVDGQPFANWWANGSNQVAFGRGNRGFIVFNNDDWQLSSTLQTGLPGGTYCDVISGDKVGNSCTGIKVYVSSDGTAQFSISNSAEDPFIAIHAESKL
- Assay Details: starch hydrolysis by α-amylase monitored by isothermal titration calorimetry (ITC)
- Assay type: biochemical
- Measurement Context: substrate starch, ITC; calculated by eq (6), substrate concentration of 1 M (IC50 equivalent to Kiu); read-out: IC50*
Field format: number, assumed µM, no unit text.

As a guide, the following entries are already answered.
Compound	Val
O=C(CCc1ccc(O)cc1)c1c(O)cc(O)cc1O[C@@H]1O[C@H](CO)[C@@H](O)[C@H](O)[C@H]1O [PHL, phlorizin]	572
O=C(O[C@@H]1Cc2c(O)cc(O)cc2O[C@@H]1c1cc(O)c(O)c(O)c1)c1cc(O)c(O)c(O)c1 [EGCG, epigallocatechin gallate]	25

Turning now to a further record.
Reported IC50 for Oc1cc(O)c2c(c1)O[C@H](c1ccc(O)c(O)c1)[C@H](O)[C@H]2c1c(O)cc(O)c2c1O[C@H](c1ccc(O)c(O)c1)[C@H](O)[C@H]2c1c(O)cc(O)c2c1O[C@H](c1ccc(O)c(O)c1)[C@H](O)C2 [PC C1, procyanidin C1] was 103

----------
- Target Of Assay: porcine pancreatic α-amylase (Sus scrofa)
- Sequence (P00690 16-511): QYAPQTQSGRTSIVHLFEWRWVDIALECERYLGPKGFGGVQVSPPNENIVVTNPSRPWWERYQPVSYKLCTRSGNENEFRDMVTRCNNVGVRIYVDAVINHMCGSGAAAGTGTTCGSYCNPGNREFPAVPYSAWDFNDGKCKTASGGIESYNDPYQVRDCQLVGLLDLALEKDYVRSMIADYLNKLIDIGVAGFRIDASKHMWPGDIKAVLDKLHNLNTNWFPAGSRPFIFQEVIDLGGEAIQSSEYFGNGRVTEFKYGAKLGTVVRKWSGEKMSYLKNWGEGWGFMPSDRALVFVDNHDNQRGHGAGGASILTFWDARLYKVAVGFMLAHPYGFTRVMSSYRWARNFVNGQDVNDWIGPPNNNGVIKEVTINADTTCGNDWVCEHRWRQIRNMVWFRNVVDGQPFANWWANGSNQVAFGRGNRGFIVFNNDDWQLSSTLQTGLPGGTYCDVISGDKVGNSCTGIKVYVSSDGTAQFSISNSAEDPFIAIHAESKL
- Assay Details: starch hydrolysis by α-amylase monitored by isothermal titration calorimetry (ITC)
- Format: biochemical
- Measurement Context: calculated based on the mass concentration; read-out: Kiu [g/L] (converted)
- Method: The amylase stock solution was diluted each day and stored during the day at 4 °C. The experiments were conducted using an Affinity ITC LV instrument with a cell volume of 182 μL (TA Instruments, Eschborn, Germany). […] Enzyme kinetic constants were determined at 310 K. The heat released during starch conversion was continuously monitored, with calculations performed using Microsoft Excel® software. […] (dQ/dt)max [%], ΔRHapp [%] und vmax [%] are calculated in relation to daily control. […]
Each entry below carries its recorded Ki.
Please give a number only; it is taken to be in µM.

Consider the worked cases shown below.
Compound	Ki [µM]
C[C@@H]1O[C@@H](OC[C@H]2O[C@@H](Oc3c(-c4ccc(O)c(O)c4)oc4cc(O)cc(O)c4c3=O)[C@H](O)[C@@H](O)[C@@H]2O)[C@H](O)[C@H](O)[C@H]1O [rutin, quercetin-3-O-rutinoside]	1560
Oc1cc(O)c2c(c1)O[C@H](c1ccc(O)c(O)c1)[C@H](O)C2 [EC, (−)-epicatechin]	517
OC[C@H]1O[C@@H](Oc2cc3c(O)cc(O)cc3[o+]c2-c2ccc(O)c(O)c2)[C@H](O)[C@@H](O)[C@@H]1O [CYD-3-glc, cyanidin-3-O-glucoside]	223
Oc1cc(O)c2c(c1)O[C@H](c1ccc(O)c(O)c1)[C@H](O)[C@H]2c1c(O)cc(O)c2c1O[C@H](c1ccc(O)c(O)c1)[C@H](O)[C@H]2c1c(O)cc(O)c2c1O[C@H](c1ccc(O)c(O)c1)[C@H](O)C2 [PC C1, procyanidin C1]	104

API: the following record is the query input.
Field Ki (entry O=C(/C=C/c1ccc(O)c(O)c1)O[C@@H]1C[C@](O)(C(=O)O)C[C@@H](O)[C@H]1O [CA, Chlorogenic acid] ) reads 282

----------
- Target Of Assay: porcine pancreatic α-amylase (Sus scrofa)
- Assay Details: starch hydrolysis by α-amylase monitored by isothermal titration calorimetry (ITC)
- Assay type: biochemical
- Measurement Context: 100 μM polyphenol; relative to control; read-out: vmax [%]
Measurement Name: remaining activity at 100 µM (%)
# output: bare number, implied unit %

Examples with their reported remaining activity at 100 µM follow.
Compound	Measurement Name	Val
COc1cc(/C=C/C(=O)O)ccc1O	remaining activity at 100 µM	95
Oc1cc(O)c2c(c1)O[C@H](c1ccc(O)c(O)c1)[C@H](O)[C@H]2c1c(O)cc(O)c2c1O[C@H](c1ccc(O)c(O)c1)[C@@H](O)C2	remaining activity at 100 µM	66
Oc1cc(O)c2c(c1)O[C@H](c1ccc(O)c(O)c1)[C@H](O)[C@H]2c1c(O)cc(O)c2c1O[C@H](c1ccc(O)c(O)c1)[C@H](O)[C@H]2c1c(O)cc(O)c2c1O[C@H](c1ccc(O)c(O)c1)[C@H](O)C2	remaining activity at 100 µM	50
C[C@@H]1O[C@@H](OC[C@H]2O[C@@H](Oc3c(-c4ccc(O)c(O)c4)oc4cc(O)cc(O)c4c3=O)[C@H](O)[C@@H](O)[C@@H]2O)[C@H](O)[C@H](O)[C@H]1O [rutin, quercetin-3-O-rutinoside]	remaining activity at 100 µM	92

Let's switch to this compound now.
Lab note: OC[C@H]1O[C@@H](Oc2cc3c(O)cc(O)cc3[o+]c2-c2ccc(O)c(O)c2)[C@H](O)[C@@H](O)[C@@H]1O [CYD-3-glc, cyanidin-3-O-glucoside] gave remaining activity at 100 µM of 65

----------
# pKi annotations
- Target Of Assay: porcine pancreatic α-amylase (Sus scrofa)
- Sequence (P00690 16-511): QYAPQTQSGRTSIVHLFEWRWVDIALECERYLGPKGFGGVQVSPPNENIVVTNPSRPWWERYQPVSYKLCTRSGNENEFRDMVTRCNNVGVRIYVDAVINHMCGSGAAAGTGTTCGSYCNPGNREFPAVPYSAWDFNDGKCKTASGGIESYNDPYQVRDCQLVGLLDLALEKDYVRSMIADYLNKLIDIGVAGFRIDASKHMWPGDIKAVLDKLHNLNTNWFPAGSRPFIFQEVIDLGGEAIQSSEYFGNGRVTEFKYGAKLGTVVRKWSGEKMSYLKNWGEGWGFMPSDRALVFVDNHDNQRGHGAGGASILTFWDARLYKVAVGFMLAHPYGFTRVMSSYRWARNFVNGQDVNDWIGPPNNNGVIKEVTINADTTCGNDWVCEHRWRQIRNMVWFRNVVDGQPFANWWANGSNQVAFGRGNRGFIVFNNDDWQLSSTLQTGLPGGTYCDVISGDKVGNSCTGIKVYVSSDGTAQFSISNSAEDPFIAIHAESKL
- Assay Details: starch hydrolysis by α-amylase monitored by isothermal titration calorimetry (ITC)
- Format: biochemical
- Measurement Context: competitive inhibition constant; substrate starch, ITC; 100 μM polyphenol (EGCG 25 μM); read-out: Kic
- Protocol: The amylase stock solution was diluted each day and stored during the day at 4 °C. The experiments were conducted using an Affinity ITC LV instrument with a cell volume of 182 μL (TA Instruments, Eschborn, Germany). […] Enzyme kinetic constants were determined at 310 K. The heat released during starch conversion was continuously monitored, with calculations performed using Microsoft Excel® software. […] (dQ/dt)max [%], ΔRHapp [%] und vmax [%] are calculated in relation to daily control. […]
# log scale: pKi equals minus log10 of the concentration in mol/L

Here is how some compounds turned out for pKi.
Compound	Val
Oc1cc(O)c2c(c1)O[C@H](c1ccc(O)c(O)c1)[C@H](O)[C@H]2c1c(O)cc(O)c2c1O[C@H](c1ccc(O)c(O)c1)[C@@H](O)C2	3.81
Oc1cc(O)c2c(c1)O[C@H](c1ccc(O)c(O)c1)[C@H](O)C2 [EC, (−)-epicatechin]	3.60
O=C(/C=C/c1ccc(O)c(O)c1)O[C@@H]1C[C@](O)(C(=O)O)C[C@@H](O)[C@H]1O	3.71
OC[C@H]1O[C@@H](Oc2cc3c(O)cc(O)cc3[o+]c2-c2ccc(O)c(O)c2)[C@H](O)[C@@H](O)[C@@H]1O [CYD-3-glc, cyanidin-3-O-glucoside]	3.84
C[C@@H]1O[C@@H](OC[C@H]2O[C@@H](Oc3c(-c4ccc(O)c(O)c4)oc4cc(O)cc(O)c4c3=O)[C@H](O)[C@@H](O)[C@@H]2O)[C@H](O)[C@H](O)[C@H]1O [rutin, quercetin-3-O-rutinoside]	3.45
O=c1c(O[C@@H]2O[C@H](CO)[C@@H](O)[C@H](O)[C@H]2O)c(-c2ccc(O)c(O)c2)oc2cc(O)cc(O)c12 [Q-3-glc, quercetin-3-O-glucoside]	3.94

The compound O=C(CCc1ccc(O)cc1)c1c(O)cc(O)cc1O[C@@H]1O[C@H](CO)[C@@H](O)[C@H](O)[C@H]1O , tested on porcine pancreatic α-amylase (Sus scrofa), showed pKi of 3.38

Fill in: porcine pancreatic α-amylase (Sus scrofa) pKi for Oc1cc(O)c2c(c1)O[C@H](c1ccc(O)c(O)c1)[C@H](O)[C@H]2c1c(O)cc(O)c2c1O[C@H](c1ccc(O)c(O)c1)[C@H](O)C2 = 3.75

Item: COc1cc(/C=C/C(=O)O)ccc1O | System: porcine pancreatic α-amylase (Sus scrofa) | pKi: 2.91

Entry O=C(O[C@@H]1Cc2c(O)cc(O)cc2O[C@@H]1c1cc(O)c(O)c(O)c1)c1cc(O)c(O)c(O)c1 [EGCG, epigallocatechin gallate] under porcine pancreatic α-amylase (Sus scrofa) had pKi of 4.72

Query Oc1cc(O)c2c(c1)O[C@H](c1ccc(O)c(O)c1)[C@H](O)[C@H]2c1c(O)cc(O)c2c1O[C@H](c1ccc(O)c(O)c1)[C@H](O)[C@H]2c1c(O)cc(O)c2c1O[C@H](c1ccc(O)c(O)c1)[C@H](O)C2 on porcine pancreatic α-amylase (Sus scrofa); pKi returned: 4.03
